Assay: inhibitors of TNFa-induced NFkB p65 translocation, primary screen, imaging, HUVEC, MLSMR starter and 10KST1 sets (AID 438);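 also: compound added about 3h40 before a 20 min TNFalpha stimulation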
Conditions: HUVEC TNFa-induced p65 nuclear translocation; measured here: nuclei count (cytotoxicity indicator), at 2.08 µM
Recorded Metric: cell count

>  <Compound>
CCc1cc2c(=O)n(C(C)C(=O)OC3CCCCC3)cnc2s1 (stereo not given)

>  <Recorded Number>
561

$$$$
>  <Compound>
CN(C1CCS(=O)(=O)C1)S(=O)C12CC3CC(CC(C3)C1)C2 (stereo not given)

>  <Recorded Number>
150

$$$$
>  <Compound>
COC(=O)c1ccsc1NC(=O)CN1C(=O)CCC1=O

>  <Recorded Number>
479

$$$$
>  <Compound>
COc1ccc(CNC(=O)CN(C(=O)c2ccc(CN3CCOCC3)o2)C2CCCC2)cc1

>  <Recorded Number>
449

$$$$
>  <Compound>
CCOC(=O)N1CCC(NC(=O)c2ccc3c(c2)sc2nc(-c4cccc(OC)c4)cn23)CC1

>  <Recorded Number>
415

$$$$

----------
Molecular target: Voltage-gated potassium channel subunit beta-2 (Rattus norvegicus)
Assay: inhibitors of rat Kvbeta2 reductase activity – biochemical, NADPH fluorescence, primary screen (AID 622);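 also: slope of raw intensity against log time taken from 70 to 1610 s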
Settings: recombinant KvBeta, 4-cyanobenzaldehyde reduction, at 10 µM, stronger effect = higher value
Recorded fluorescence slope values for a group of molecules are listed next.

>  <Molecule>
CCOC(=O)c1sc2cccc(F)c2c1N

>  <fluorescence slope>
-0.319

$$$$
>  <Molecule>
CC(CCC(=O)Nc1nncs1)C(=O)O (configuration not stated)

>  <fluorescence slope>
-0.535

$$$$
>  <Molecule>
O=C(CC(=O)c1cc(Cl)ccc1O)c1ccccc1

>  <fluorescence slope>
-0.41

$$$$
>  <Molecule>
CCC1(c2ccc(F)cc2)NC(=O)N(CC(=O)c2ccc[nH]2)C1=O (configuration not stated)

>  <fluorescence slope>
-0.419

$$$$
>  <Molecule>
COc1cccc(-c2nc(CS(=O)(=O)CC(=O)N3CCN(c4ccccn4)CC3)c(C)o2)c1

>  <fluorescence slope>
-0.506

$$$$
>  <Molecule>
CC1CCCC(C)N1C(=O)CSc1nnc(-c2cccs2)o1 (configuration not stated)

>  <fluorescence slope>
-0.382

$$$$
>  <Molecule>
N#Cc1cnc(SCC(=O)c2ccccc2)nc1N

>  <fluorescence slope>
-0.402

$$$$
>  <Molecule>
COc1cc(C(=O)Nc2cc(C)ccn2)cc(OC)c1OC

>  <fluorescence slope>
-0.472

$$$$
>  <Molecule>
CCCCN1C(=O)C2C(C(=O)Nc3cccc(OC)c3)C3C=CC2(O3)C1C(=O)NC1CCCCC1C (configuration not stated)

>  <fluorescence slope>
-0.503

$$$$
>  <Molecule>
CC1CN(C(=O)c2scc3c2OCCO3)CC(C)O1 (configuration not stated)

>  <fluorescence slope>
-0.598

$$$$
>  <Molecule>
CCC(C(=O)N1CCc2cc(OC)c(OC)cc2C1)c1ccccc1 (configuration not stated)

>  <fluorescence slope>
-0.478

$$$$
>  <Molecule>
CC(C)OC(=O)c1ccc(NC(=O)C2C3CC4OC(=O)C2C4C3)cc1 (configuration not stated)

>  <fluorescence slope>
-0.327

$$$$

----------
Experiment: inhibitors of TNFa-induced NFkB p65 translocation, primary screen, imaging, HUVEC, MLSMR starter and 10KST1 sets (AID 438);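 also: compound added about 3h40 before a 20 min TNFalpha stimulation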
Conditions: HUVEC TNFa-induced p65 nuclear translocation; measured here: nuclei count (cytotoxicity indicator), at 2.08 µM
Item-by-item account of cell count

>  <Molecule>
CC(=O)Nc1c(C(=O)O)[nH]c2ccccc12

>  <cell count>
463

$$$$
>  <Molecule>
CCSc1ccccc1C(=O)Nc1cccc(OC)c1

>  <cell count>
421

$$$$
>  <Molecule>
O=C(NCc1ccco1)c1csc(Nc2ccccc2Cl)n1

>  <cell count>
484

$$$$
>  <Molecule>
O=C(CCn1c(=O)oc2ccccc21)N1CCN(c2ccccc2Cl)CC1

>  <cell count>
570

$$$$
>  <Molecule>
COc1ccc(CC(=O)Nc2c3c(nn2-c2cccc(Cl)c2)CS(=O)C3)cc1 (stereo unspecified)

>  <cell count>
466

$$$$
>  <Molecule>
COCCCNC(=O)C1CCN(C(=O)Nc2ccc(Cl)cc2)CC1

>  <cell count>
577

$$$$
>  <Molecule>
O=C(Cn1nc(Cc2ccncc2)c2ccccc2c1=O)N1CCN(C(=O)c2ccco2)CC1

>  <cell count>
780

$$$$
>  <Molecule>
COc1cc2c(=O)n(Cc3ccccc3)c(=O)n(CC(=O)NCc3ccco3)c2cc1OC

>  <cell count>
358

$$$$
>  <Molecule>
CC(=O)N(CCN(C(C)=O)c1ccccc1)c1ccccc1

>  <cell count>
448

$$$$
>  <Molecule>
COC(=O)c1cccc(NC(=O)Cc2coc3cc(OC)ccc23)c1

>  <cell count>
402

$$$$
>  <Molecule>
COC(=O)c1ccc2c(=O)n(CC3CCCO3)c(=S)[nH]c2c1 (stereo unspecified)

>  <cell count>
548

$$$$

----------
Assay: reduction of polyQ htt aggregates in cells – imaging, exon1htt(103Q)mCFP cells, high-content imaging, primary screen (AID 483);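 also: compound exposure lasted 3 days before fixation; percent of the per-plate median nuclei count of sample wells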
Conditions: exon1htt(103Q)mCFP cell line, aggregate imaging, at 2 µM; measured here: cell count, toxicity

>  <Compound>
O=C1NC2(Nc3ccccc31)C(=O)Nc1ccccc12 (stereo unspecified)

>  <Readout Units>
%

>  <nuclei count>
102

$$$$
>  <Compound>
CC(C)OC(=O)c1ccc(NC(=O)C2C3CC4OC(=O)C2C4C3)cc1 (stereo unspecified)

>  <Readout Units>
%

>  <nuclei count>
103

$$$$
>  <Compound>
COC(=O)c1cc2oc(C)cc2n1CC(=O)N(C)c1ccccc1

>  <Readout Units>
%

>  <nuclei count>
108

$$$$
>  <Compound>
CCOC(=O)c1cn(CC)c2cc(N3CCOCC3)c(F)cc2c1=O

>  <Readout Units>
%

>  <nuclei count>
72.9

$$$$
>  <Compound>
CSc1ccc(-c2nc(CSCC(=O)N3CCOCC3)c(C)o2)cc1

>  <Readout Units>
%

>  <nuclei count>
89.5

$$$$
>  <Compound>
CC(=O)Nc1c2c(nn1-c1ccc(C)cc1C)CSC2

>  <Readout Units>
%

>  <nuclei count>
95.7

$$$$
>  <Compound>
CCN(c1c(C)n(C)n(-c2ccccc2)c1=O)S(C)(=O)=O

>  <Readout Units>
%

>  <nuclei count>
104

$$$$
>  <Compound>
CCCCCn1c(CCNC(=O)CCC)nc2ccccc21

>  <Readout Units>
%

>  <nuclei count>
55

$$$$
>  <Compound>
COc1ccc(NC(=O)C(C)Oc2ccc(/C(C)=N\O)cc2)cc1 (stereo unspecified)

>  <Readout Units>
%

>  <nuclei count>
114

$$$$
>  <Compound>
O=C(Nc1cccc(Cl)c1)N1CCN(Cc2ccccc2)CC1

>  <Readout Units>
%

>  <nuclei count>
99.5

$$$$
>  <Compound>
O=C(NCC(=O)N(Cc1cccs1)C(C(=O)NC1CCCC1)c1ccncc1)c1ccco1 (stereo unspecified)

>  <Readout Units>
%

>  <nuclei count>
107

$$$$
>  <Compound>
CC1=C(C(=O)NC2CCCC(C)C2C)C2(CCCCC2)OC1=O (stereo unspecified)

>  <Readout Units>
%

>  <nuclei count>
64.9

$$$$
>  <Compound>
CCc1nc(C)ccc1OCC(=O)O

>  <Readout Units>
%

>  <nuclei count>
89.2

$$$$
>  <Compound>
COc1ccc(C)cc1-n1c(N)c(C#N)c(C#N)c1-c1ccc(OC)c(OC)c1OC

>  <Readout Units>
%

>  <nuclei count>
86

$$$$
>  <Compound>
COc1ccc(Cl)cc1Nc1nc(NCCO)nc(N2CCCC2)n1

>  <Readout Units>
%

>  <nuclei count>
95.9

$$$$
>  <Compound>
Cc1cccc(NC(=O)c2cc(NC(=O)c3ccco3)ccc2N2CCCCC2)c1

>  <Readout Units>
%

>  <nuclei count>
113

$$$$
>  <Compound>
O=C(CN(CCc1ccccc1)C(=O)CN1C(=O)COc2ccccc21)NCc1ccco1

>  <Readout Units>
%

>  <nuclei count>
55.5

$$$$
>  <Compound>
Nc1nc(NCc2ccco2)nn1-c1ccccc1

>  <Readout Units>
%

>  <nuclei count>
112

$$$$
>  <Compound>
CCCC(=O)Nc1ccc2oc(-c3cccnc3)nc2c1

>  <Readout Units>
%

>  <nuclei count>
82.7

$$$$
>  <Compound>
Cn1c(=O)[nH]c(=O)c2c1ncn2CCN1CCOCC1

>  <Readout Units>
%

>  <nuclei count>
107

$$$$
>  <Compound>
Cc1c(NC(=O)CSc2nnc3sc4ccccc4n23)c(=O)n(-c2ccccc2)n1C

>  <Readout Units>
%

>  <nuclei count>
98.3

$$$$
>  <Compound>
Cc1cc(C(=O)Nc2ccccc2C#N)n(-c2ccccc2)n1

>  <Readout Units>
%

>  <nuclei count>
88.3

$$$$
>  <Compound>
Cc1cc(C(=O)NCCN2CCN(c3cccc(Cl)c3)CC2)n(-c2ccccc2)n1

>  <Readout Units>
%

>  <nuclei count>
78.7

$$$$
>  <Compound>
C1CCc2nnc(-c3nnc4n3CCCCC4)n2CC1

>  <Readout Units>
%

>  <nuclei count>
100

$$$$
>  <Compound>
Cc1cnn(Cc2ccccc2)c1N

>  <Readout Units>
%

>  <nuclei count>
105

$$$$
>  <Compound>
CCCc1nc(NCc2ccncc2)c2nnn(Cc3ccccc3F)c2n1

>  <Readout Units>
%

>  <nuclei count>
116

$$$$
>  <Compound>
COc1cccc(C2CC(c3c(Cl)cccc3Cl)n3nc(N)nc3N2)c1 (stereo unspecified)

>  <Readout Units>
%

>  <nuclei count>
75.1

$$$$
>  <Compound>
COc1ccc(C(=O)Nc2ccc(C)cn2)c(OC)c1

>  <Readout Units>
%

>  <nuclei count>
79

$$$$
>  <Compound>
O=C(NC1CCCC1)C(c1cccs1)N(Cc1ccco1)C(=O)Cn1nnc(-c2cccs2)n1 (stereo unspecified)

>  <Readout Units>
%

>  <nuclei count>
102

$$$$
>  <Compound>
O=C(O)c1ccc2c(c1)C(=O)N(c1ccc(Cl)cn1)C2=O

>  <Readout Units>
%

>  <nuclei count>
84.8

$$$$
>  <Compound>
COC(=O)c1cccc(S(=O)(=O)N2CCC(C)CC2)c1

>  <Readout Units>
%

>  <nuclei count>
95.5

$$$$
>  <Compound>
CCCCCn1c(CN2CCN(c3cccc(Cl)c3)CC2)nc2c1c(=O)n(C)c(=O)n2C

>  <Readout Units>
%

>  <nuclei count>
109

$$$$
>  <Compound>
COc1ccccc1CNC(=O)C1CCCN(S(=O)(=O)c2cccc3cccnc23)C1 (stereo unspecified)

>  <Readout Units>
%

>  <nuclei count>
102

$$$$
>  <Compound>
CCCC1(C(=O)OC)NC(c2cc(OC)c(OC)c(OC)c2)C2C(=O)N(CC)C(=O)C21 (stereo unspecified)

>  <Readout Units>
%

>  <nuclei count>
111

$$$$
>  <Compound>
CCN(CC)c1ccc2cc(NC(=O)CCC(=O)O)c(=O)oc2c1

>  <Readout Units>
%

>  <nuclei count>
95

$$$$
>  <Compound>
Cc1cccc(C)c1NC(=O)CS(=O)CC(=O)NC1CCCc2ccccc21 (stereo unspecified)

>  <Readout Units>
%

>  <nuclei count>
62.2

$$$$
>  <Compound>
CC1(C)COCN1S(=O)(=O)c1ccc(C(=O)Nc2nnc(-c3ccc(Cl)s3)o2)cc1

>  <Readout Units>
%

>  <nuclei count>
98.3

$$$$
>  <Compound>
C=CCn1c(SCc2cccc(C#N)c2)nnc1-c1ccccc1O

>  <Readout Units>
%

>  <nuclei count>
102

$$$$
>  <Compound>
COc1ccc(N2CCN(c3oc(COc4ccccc4Cl)nc3C#N)CC2)cc1

>  <Readout Units>
%

>  <nuclei count>
95.5

$$$$
>  <Compound>
Cc1cc(C)c2ccc(N)nc2c1O

>  <Readout Units>
%

>  <nuclei count>
6.8

$$$$
>  <Compound>
CC(C)N(Cc1nc(-c2ccc(Cl)cc2)no1)C(=O)CN(C)S(=O)(=O)c1ccc(Cl)cc1

>  <Readout Units>
%

>  <nuclei count>
95.7

$$$$
>  <Compound>
COc1ccc(/C=N/n2cc(-c3ccc(OC)cc3)nc2N)cc1

>  <Readout Units>
%

>  <nuclei count>
107

$$$$
>  <Compound>
COc1ccc(C(=O)N2CCN(C3CCC(c4ccccc4)CC3)CC2)cc1OC (stereo unspecified)

>  <Readout Units>
%

>  <nuclei count>
88.1

$$$$
>  <Compound>
Cc1sc2ncn3ncnc3c2c1C

>  <Readout Units>
%

>  <nuclei count>
41.8

$$$$
>  <Compound>
COc1ccc(OCCSc2nc3ccccc3n2CC(=O)O)cc1

>  <Readout Units>
%

>  <nuclei count>
108

$$$$
>  <Compound>
CC(C)c1ccc(S(=O)(=O)N2CCN(CCC(=O)Nc3ccc(N(C)C)cc3)CC2)cc1

>  <Readout Units>
%

>  <nuclei count>
91.6

$$$$
